Target: SARS-CoV-2 spike receptor-binding domain (RBD) (SARS-CoV-2, UniProt P0DTC2 319-541)

[
  {
    "BINDER": "AB-009269 (antibody, V domains shown) VH: QVQLVQSGAEVKKPGASVKVSCKASGYTFTSYGISWVRQAPGQGLEWMGWISAYNGNTNYAQKLQGRVTMTTDTSTSTAYMELRSLRSDDTAVYYCAREGDCSGGSCYSGYYYYYGMDVWGQGTTVTVSS VL: EIVLTQSPATLSLSPGERATLSCRASQSVSSYLAWYQQKPGQAPRLLIYDASNRATGIPARFSGSGSGTDFTLTISSLEPEDFAVYYCQQRSNWGTFGPGTKVDIK",
    "koff, s⁻¹": 0.000675
  },
  {
    "BINDER": "AB-009666 (antibody, V domains shown) VH: EVQLVESGGGLVQPGGSLRLSCAASGFTFSSYDMHWVRQATGKGLEWVSTIGTAGDTYYPGSVKGRFTISRENAKNSLYLQMNSLRAEDTAVYYCARVNYDSSGYPTYWYFDLWGRGTLVTVSS VL: DIQMTQSPSSLSASVGDRVTITCRASQSISRYLNWYQQKPGKAPKLLIYAASSLQSGVPSRFSGSGSGTDFTLTISSLQPEDFATYNCQQSYSSPPWTFGQGTKVEIK",
    "koff, s⁻¹": 0.00062
  },
  {
    "BINDER": "AB-009251 (antibody, V domains shown) V domain 1: QVQLVQSGAEVKKPGASVKVSCKTSGYTFTTFYIHWVRQVPGQGLEWMGIINPDGGSTNYAQEFQARVTMTTDTSTSTAYMELSSLRFEDTAVFYCATSLGAPPGLSPRTGPQRRGPPGFDFWGQGTLITVSA V domain 2: QSVLTQPPSVSGAPGQRVTISCTGSSSNIGAGYDVHWYQQLPGTAPKLLIFDNNNRPSGVPYRFSGSRSGTSASLAITGLQPEDEADYYCQSYDSSLSGRVFGGGTRVTVL",
    "koff, s⁻¹": 0.000469
  },
  {
    "BINDER": "AB-009221 (antibody, V domains shown) VH: EVQLVESGGGLVQPGGSLRLSCAASGFTVSSNYMSWVRQAPGKGLEWVSVIYSGGSTYYADSVKGRFTISRHNSKNTLYLQMNSLRAEDTAVYYCARDRNAFDIWGQGTMVIVSS VL: DIQMTQSPSSLSASVGDRVSITCQASQDISNDLNWYQQKPGKAPKLLVYDASKLETGVPPRFSGSGSGTDFTFTISSLQPEDIATYYCQQYDNLPLYSFGQGTKLEIK",
    "koff, s⁻¹": 0.00121
  }
]
